Sourced from patent US20130330346A1

Target system: T1, Human CXCR2 (human, UniProt P25025 1-360)
T1 construct: Some cell lines carry an N-terminal 3xHA tag; also called hCXCR2; huCXCR2
T1 sequence: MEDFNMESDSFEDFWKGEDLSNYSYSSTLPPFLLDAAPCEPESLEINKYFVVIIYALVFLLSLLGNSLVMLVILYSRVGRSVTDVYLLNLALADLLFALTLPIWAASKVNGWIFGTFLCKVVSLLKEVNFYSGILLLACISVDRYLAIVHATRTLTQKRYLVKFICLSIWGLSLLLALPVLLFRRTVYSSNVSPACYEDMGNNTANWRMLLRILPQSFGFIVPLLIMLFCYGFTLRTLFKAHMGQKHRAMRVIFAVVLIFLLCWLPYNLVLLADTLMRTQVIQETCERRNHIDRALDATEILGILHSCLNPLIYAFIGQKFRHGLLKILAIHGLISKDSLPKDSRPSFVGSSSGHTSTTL
Protocol summary: FACS competition vs 3 nM FMAT-Blue Gro-α
# IC50 annotations
The answer is to be given in nM; state only the numeric part.

Here is how some binders turned out for IC50.
[[record]]
binder = "CXCR20015 (other, Two different VHH joined by a GlySer linker; also called 2B2-35GS-137B7; not shown: C-terminal c-myc tag and His6 tag coded by pAX100) EVQLVESGGELVQPGGSLRLSCAASGSILTINAMGWYRQAPGKQRELVVRRTRGGSTTYQDSVKGRFTISADIAKKTMYLQMNSLKPEDTAVYYCMLDDRGGVYWGQGTQVTVSSGGGGSGGGGSGGGGSGGGGSGGGGSGGGGSGGGGSEVQLVESGGGLVQPGGSVRLSCVASGIIFRLSALGWTRQGPGKAREWVAGINSDGTTNYADPVKGRFTISRDNAKNTIYLHMDMLKPEDTAVYYCASGKYRGQGTQVTVSS"
endpoint = "IC50"
value_observed = 0.7

[[record]]
binder = "CXCR20014 (bispecific antibody, Biparatopic: two VHH joined by a GlySer linker; also called 97A9-35GS-2B2; 97A9-2B2; not shown: C-terminal c-myc tag and His6 tag coded by pAX100) EVQLVESGGGLVQPGGSLRLSCVASGSIVRINTMGWYRQTPGKQRELVADITSGGNINYIDAVKGRFTISRDNTKNTVYLQMNSLKPEDTAVYYCNAEIVVLVGVWTQRARTGNYWGQGTQVTVSSGGGGSGGGGSGGGGSGGGGSGGGGSGGGGSGGGGSEVQLVESGGELVQPGGSLRLSCAASGSILTINAMGWYRQAPGKQRELVVRRTRGGSTTYQDSVKGRFTISADIAKKTMYLQMNSLKPEDTAVYYCMLDDRGGVYWGQGTQVTVSS"
endpoint = "IC50"
value_observed = 1.59

[[record]]
binder = "CXCR20024 (VHH, Bivalent: two VHH joined by a GlySer linker; also called 163E3-35GS-163E3; not shown: C-terminal c-myc tag and His6 tag coded by pAX100) EVQLVESGGGLVQPGGSLRLSCVASGRIFSSNAMGWFRQAPGKEREFVAAITWRSGGSAYYADSAKGRFTISRDNAKNTVYLQMNSLKPEDTAVYYCAAGGSSWLSFPPDYWGQGTQVTVSSGGGGSGGGGSGGGGSGGGGSGGGGSGGGGSGGGGSEVQLVESGGGLVQPGGSLRLSCVASGRIFSSNAMGWFRQAPGKEREFVAAITWRSGGSAYYADSAKGRFTISRDNAKNTVYLQMNSLKPEDTAVYYCAAGGSSWLSFPPDYWGQGTQVTVSS"
endpoint = "IC50"
value_observed = 5.27

[[record]]
binder = "CXCR20022 (VHH, Bivalent: two VHH joined by a GlySer linker; also called 163D2-35GS-163D2; not shown: C-terminal c-myc tag and His6 tag coded by pAX100) EVQLVESGGGLVQAGGSLRLSCAASGRTFSDYAMGWFRQAPGKEREFVAAITWNGGRVFYTASVKGRFTISRDNAKNTMYLQMNSLKPEDTAVYYCAADKDRRTDYLGHPVAYWGQGTQVTVSSGGGGSGGGGSGGGGSGGGGSGGGGSGGGGSGGGGSEVQLVESGGGLVQAGGSLRLSCAASGRTFSDYAMGWFRQAPGKEREFVAAITWNGGRVFYTASVKGRFTISRDNAKNTMYLQMNSLKPEDTAVYYCAADKDRRTDYLGHPVAYWGQGTQVTVSS"
endpoint = "IC50"
value_observed = 4.14


Here is another binder to look at.
I would be grateful if you could share the reported IC50 for CXCR20029 (other, Biparatopic: two VHH joined by a GlySer linker; also called 163E3-35GS-54B12; not shown: C-terminal c-myc tag and His6 tag coded by pAX100) EVQLVESGGGLVQPGGSLRLSCVASGRIFSSNAMGWFRQAPGKEREFVAAITWRSGGSAYYADSAKGRFTISRDNAKNTVYLQMNSLKPEDTAVYYCAAGGSSWLSFPPDYWGQGTQVTVSSGGGGSGGGGSGGGGSGGGGSGGGGSGGGGSGGGGSEVQLVESGGGLVQAGGSLTLSCAVSGSTFRINTMGWYRRAPGKQRELVAARDRGGYINYVDSVKGRFTVSRDNAKPTMYLQMNSLKPEDTAVYYCHAGTQDRTGRNFDRWGQGTQVTVSS .
1.13
